target: canine TRPM8 (Canis lupus familiaris, UniProt Q1A7N1); test: In Vitro Canine TRPM8 Functional Assay (Ca2+ fluorescence, icilin activation); assay type: cell-based; settings: 0.2 μM compound; HEK293 cells stably expressing canine TRPM8, icilin activation; read-out: % Inh @ 0.2
Sequence (Q1A7N1 1-1104): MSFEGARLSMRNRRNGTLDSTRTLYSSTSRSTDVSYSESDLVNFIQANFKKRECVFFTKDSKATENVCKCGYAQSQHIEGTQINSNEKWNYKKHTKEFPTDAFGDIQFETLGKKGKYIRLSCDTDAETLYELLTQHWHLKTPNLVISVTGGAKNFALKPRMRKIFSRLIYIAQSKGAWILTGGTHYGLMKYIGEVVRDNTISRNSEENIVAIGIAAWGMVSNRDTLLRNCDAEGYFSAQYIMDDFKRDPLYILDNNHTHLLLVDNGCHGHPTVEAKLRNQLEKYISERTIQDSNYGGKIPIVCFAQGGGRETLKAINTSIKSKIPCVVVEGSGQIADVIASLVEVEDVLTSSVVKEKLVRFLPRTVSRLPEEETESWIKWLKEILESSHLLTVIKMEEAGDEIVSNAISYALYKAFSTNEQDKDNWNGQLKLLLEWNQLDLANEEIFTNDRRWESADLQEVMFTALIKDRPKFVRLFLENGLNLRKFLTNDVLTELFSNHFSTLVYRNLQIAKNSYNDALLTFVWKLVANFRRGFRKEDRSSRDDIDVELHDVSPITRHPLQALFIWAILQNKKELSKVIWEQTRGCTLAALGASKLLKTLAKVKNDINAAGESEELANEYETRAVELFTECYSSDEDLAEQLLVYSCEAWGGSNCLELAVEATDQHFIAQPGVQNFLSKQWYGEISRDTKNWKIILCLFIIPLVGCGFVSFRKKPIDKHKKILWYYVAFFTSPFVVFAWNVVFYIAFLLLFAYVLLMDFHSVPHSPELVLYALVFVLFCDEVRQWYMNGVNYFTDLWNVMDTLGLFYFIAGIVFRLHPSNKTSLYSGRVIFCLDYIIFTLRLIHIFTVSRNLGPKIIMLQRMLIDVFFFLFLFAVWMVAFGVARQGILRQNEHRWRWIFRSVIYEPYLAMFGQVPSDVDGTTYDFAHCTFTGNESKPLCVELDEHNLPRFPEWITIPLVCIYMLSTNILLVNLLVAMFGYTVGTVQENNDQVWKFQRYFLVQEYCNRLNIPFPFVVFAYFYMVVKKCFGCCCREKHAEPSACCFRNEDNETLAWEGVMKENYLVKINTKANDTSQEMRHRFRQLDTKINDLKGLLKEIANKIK
result type: inhibition at 0.2 µM (%)
Give just the numeric value; % need not be written.

Some compounds with known inhibition at 0.2 µM results, for comparison:
In [3]: df
Out[3]:
                                   compound           result_type  readout_value
0  COC(=O)c1ccc(S(=O)(=O)N(CCCF)c2cc3ccccc3s2)cc1 [Compound 842]  inhibition at 0.2 µM             63
1  Cc1c(N(Cc2ccc(F)cc2)S(=O)(=O)c2ccc(OCc3ccc(F)cc3)c(F)c2)sc2ccccc12 [Compound 845]  inhibition at 0.2 µM             24
2  CC(C)(O)c1c(N(CCCF)S(=O)(=O)c2ccccc2)sc2ccccc12 [Compound 830]  inhibition at 0.2 µM            102
3  CCS(=O)(=O)N(Cc1ccnc(F)c1)c1sc2ccccc2c1C(C)O (centres unmarked) [Compound 835]  inhibition at 0.2 µM             89
4  O=C(O)c1cccc(S(=O)(=O)N(Cc2ccc(F)c(C(F)(F)F)c2)c2sc3ncccc3c2Cl)c1 [Compound 814]  inhibition at 0.2 µM             80
5  CCS(=O)(=O)N(Cc1ccc(F)c(OC)c1)c1sc2ccccc2c1C(C)O (centres unmarked) [Compound 827]  inhibition at 0.2 µM            101
6  CCS(=O)(=O)N(Cc1ccc(F)c(OC)c1)c1sc2ccccc2c1C(C)(C)O [Compound 838]  inhibition at 0.2 µM            101

As a next step, examine the compound that follows.
What inhibition at 0.2 µM appears in the records for this compound with canine TRPM8 (Canis lupus familiaris, UniProt Q1A7N1)? Cc1c(N(Cc2ccc(OC(F)(F)F)cc2)S(=O)(=O)c2ccc(-c3noc(=O)[nH]3)cc2)sc2ccccc12 [Compound 801] 102

* * *

Parameter inhibition at 0.2 µM: see the listing below.
target: UniProtKB Q1A7N1; experiment: In Vitro Canine TRPM8 Functional Assay (Ca2+ fluorescence, icilin activation); assay type: cell-based; conditions: compound at 0.2 μM; canine TRPM8, icilin activation; read-out: % Inh @ 0.2
Give just the numeric value; % need not be written.

Need inhibition at 0.2 µM of Cc1c(N(CCOC(C)(C)C)S(=O)(=O)c2ccc(C(=O)O)cc2)sc2ccccc12 , thanks. 91

Need inhibition at 0.2 µM of CC(C)c1c(N(Cc2ccc(F)c(C(F)(F)F)c2)S(=O)(=O)c2ccccc2)sc2ccccc12 , thanks. 105

Need inhibition at 0.2 µM of Cc1c(N(Cc2ccc(F)c(C(F)(F)F)c2)S(=O)(=O)CCCCn2ccnc2)sc2ccccc12 , thanks. 79

Need inhibition at 0.2 µM of O=C(O)c1ccc(S(=O)(=O)N(CCC2CC2)c2sc3ccccc3c2Br)cc1 , thanks. 101

Need inhibition at 0.2 µM of CCCCN(c1sc2ccccc2c1Cl)S(=O)(=O)c1ccc(C(=O)O)cc1 , thanks. 100

Need inhibition at 0.2 µM of CC(O)c1c(N(Cc2ccc(F)c(F)c2)S(C)(=O)=O)sc2ccccc12 (centres unmarked) , thanks. 98

Need inhibition at 0.2 µM of CS(=O)(=O)Nc1ccc(S(=O)(=O)N(CCCCC(F)(F)F)c2cc3ccccc3s2)cc1 , thanks. 61

Need inhibition at 0.2 µM of COC(=O)c1ccc(S(=O)(=O)N(CCCC(F)(F)F)c2sc3ccccc3c2Cl)cc1 , thanks. 54

Need inhibition at 0.2 µM of Nc1ccc(S(=O)(=O)N(CCCCC(F)(F)F)c2sc3ccccc3c2Br)cc1 , thanks. 103

Need inhibition at 0.2 µM of CN1CCN(C2=C(N(CCC3CC3)S(=O)(=O)c3ccccc3)S(=O)(=O)c3ccccc32)CC1 , thanks. 20

Need inhibition at 0.2 µM of CCCCN(c1sc2ccccc2c1C(=O)N(C)C)S(=O)(=O)c1ccc(C(=O)O)cc1 , thanks. 13

Need inhibition at 0.2 µM of O=S(=O)(c1ccc(-c2nnn[nH]2)cc1)N(CCC1CC1)c1sc2ccccc2c1Cl , thanks. 101

Need inhibition at 0.2 µM of CCS(=O)(=O)N(CCN1CCOCC1)c1sc2ccccc2c1C(C)=O , thanks. 14

Need inhibition at 0.2 µM of COC(=O)c1ccccc1S(=O)(=O)N(Cc1ccc(F)c(C(F)(F)F)c1)c1sc2ccccc2c1Br , thanks. 99

Need inhibition at 0.2 µM of CCCCN(c1sc2cc(F)ccc2c1C)S(=O)(=O)c1ccc(C(=O)O)cc1 , thanks. 101

* * *

target: human TRPM8 (Homo sapiens (Human), UniProt Q7Z2W7); experiment: In Vitro Human TRPM8 Functional Assay (Ca2+ fluorescence, icilin EC80); type: cell-based; settings: Cryopreserved cells; read-out: hTRPM8 IC50
Sequence (Q7Z2W7 whole entry): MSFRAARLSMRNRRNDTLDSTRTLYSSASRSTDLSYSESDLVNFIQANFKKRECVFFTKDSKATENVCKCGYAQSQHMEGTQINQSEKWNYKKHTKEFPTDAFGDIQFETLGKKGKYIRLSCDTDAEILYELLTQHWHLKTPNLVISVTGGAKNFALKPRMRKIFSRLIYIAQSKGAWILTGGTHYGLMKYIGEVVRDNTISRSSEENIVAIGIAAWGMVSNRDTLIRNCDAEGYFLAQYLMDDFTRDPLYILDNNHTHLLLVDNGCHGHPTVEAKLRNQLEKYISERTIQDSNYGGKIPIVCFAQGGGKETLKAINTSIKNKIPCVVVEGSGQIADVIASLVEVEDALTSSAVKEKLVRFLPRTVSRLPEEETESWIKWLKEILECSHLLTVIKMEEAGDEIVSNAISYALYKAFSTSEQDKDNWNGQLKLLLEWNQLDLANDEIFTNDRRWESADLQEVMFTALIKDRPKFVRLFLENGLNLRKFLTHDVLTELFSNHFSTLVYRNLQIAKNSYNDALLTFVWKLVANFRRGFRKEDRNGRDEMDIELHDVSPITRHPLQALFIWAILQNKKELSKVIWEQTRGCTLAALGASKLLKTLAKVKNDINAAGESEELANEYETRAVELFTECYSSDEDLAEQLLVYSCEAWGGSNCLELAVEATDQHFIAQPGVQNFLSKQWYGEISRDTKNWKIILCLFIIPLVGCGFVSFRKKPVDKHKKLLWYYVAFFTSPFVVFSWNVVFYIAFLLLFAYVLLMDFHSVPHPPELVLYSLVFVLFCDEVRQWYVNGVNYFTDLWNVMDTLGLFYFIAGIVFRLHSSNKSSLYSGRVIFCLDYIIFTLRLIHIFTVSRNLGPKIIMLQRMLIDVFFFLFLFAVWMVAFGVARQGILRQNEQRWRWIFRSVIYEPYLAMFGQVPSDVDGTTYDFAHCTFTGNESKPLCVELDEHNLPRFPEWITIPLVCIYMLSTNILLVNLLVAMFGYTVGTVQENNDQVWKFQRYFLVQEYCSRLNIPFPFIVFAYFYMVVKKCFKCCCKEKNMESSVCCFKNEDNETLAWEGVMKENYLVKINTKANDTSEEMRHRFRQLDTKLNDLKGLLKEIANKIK
result type: IC50 (nM)
Give just the numeric value; nM need not be written.

Need IC50 of Cc1c(N(Cc2ccc(OC(F)(F)F)cc2)S(=O)(=O)c2ccc(C(=O)O)cc2)sc2ccccc12 , thanks. 1.4

* * *

molecular target: canine TRPM8 (Canis lupus familiaris, UniProt Q1A7N1); assay: In Vitro Canine TRPM8 Functional Assay (Ca2+ fluorescence, icilin activation); assay type: cell-based; settings: HEK293 cells stably expressing canine TRPM8; icilin activation; eight-point dose-response; read-out: IC50
pIC50: −log10 of the molar value.
Use Fulfilled when the recorded pIC50 is no lower than 8; use Not fulfilled when it is lower.

Example entries begin here.
                                smiles_text  assigned_class
0  Cc1c(N(CCC2CC2)S(=O)(=O)c2ccc(C(=O)[O-])cc2)sc2ccccc12.[Na+]       Fulfilled
1  O=S(=O)(c1cccc(O)c1)N(Cc1ccc(F)c(C(F)(F)F)c1)c1sc2ccccc2c1Br       Fulfilled
2  CS(=O)(=O)N(Cc1ccc(F)c(F)c1)c1cc2ccccc2s1   Not fulfilled
3  N/C(=N\O)c1ccc(S(=O)(=O)N(Cc2ccc(F)c(C(F)(F)F)c2)c2cc3ccccc3s2)cc1   Not fulfilled
4  COc1ccc(S(=O)(=O)N(Cc2ccc(F)c(C(F)(F)F)c2)c2sc3ccccc3c2Cl)cc1   Not fulfilled

Evaluate CS(=O)(=O)Nc1ccc(S(=O)(=O)N(CCC(F)(F)F)c2sc3ccccc3c2Br)cc1 : pIC50 at minimum 8? Not fulfilled

* * *

Parameter % Inh @ 0.2 (μM): see the listing below.
molecular target: canine TRPM8 (Canis lupus familiaris, UniProt Q1A7N1); experiment: In Vitro Canine TRPM8 Functional Assay (Ca2+ fluorescence, icilin activation); format: cell-based; conditions: compound at 0.2 μM; canine TRPM8, icilin activation
Give just the numeric value; % need not be written.

>>> print(df.to_string())
                                   molecule                     target_or_test_system       result_type  readout_units  readout_value
0  CN(C)S(=O)(=O)N(Cc1ccc(F)c(C(F)(F)F)c1)c1cc2ccccc2s1  canine TRPM8 (Canis lupus familiaris, UniProt Q1A7N1)  % Inh @ 0.2 (μM)              %             99
1  CCCCN(c1sc2ccccc2c1Cl)S(=O)(=O)c1ccc(C2=NOS(=O)N2)cc1 (stereo not shown)  canine TRPM8 (Canis lupus familiaris, UniProt Q1A7N1)  % Inh @ 0.2 (μM)              %             96
2  CN(C)S(=O)(=O)c1cccc(S(=O)(=O)N(Cc2ccc(F)c(C(F)(F)F)c2)c2cc3ccccc3s2)c1  canine TRPM8 (Canis lupus familiaris, UniProt Q1A7N1)  % Inh @ 0.2 (μM)              %             22

As a next step, examine the molecule that follows.
Need % Inh @ 0.2 (μM) of Cc1c(N(CCCCC(F)(F)F)S(=O)(=O)c2ccc(N3CCCCC3)cc2)sc2ccccc12 , thanks. 65

* * *

biological target: canine TRPM8 (Canis lupus familiaris, UniProt Q1A7N1); experiment: In Vitro Canine TRPM8 Functional Assay (Ca2+ fluorescence, icilin activation); format: cell-based; conditions: compound at 0.5 μM; canine TRPM8, icilin activation; read-out: % Inh @ 0.5
Parameter inhibition at 0.5 µM: see the listing below.
Give just the numeric value; % need not be written.

>>> print(df.to_string())
                                smiles_text           result_type  readout_value
0  CS(=O)(=O)CS(=O)(=O)N(Cc1ccc(F)c(F)c1)c1cc2ccccc2s1  inhibition at 0.5 µM             97
1  CS(=O)(=O)N(Cc1ccc(F)c(F)c1)c1sc2ccccc2c1Br  inhibition at 0.5 µM             96
2  O=S(=O)(c1ccccc1)N(Cc1ccccc1OC(F)(F)F)c1cc2ccccc2s1  inhibition at 0.5 µM             99
3  O=S(=O)(c1cccc(F)c1)N(Cc1ccc(F)c(F)c1)c1cc2ccccc2s1  inhibition at 0.5 µM             95
4  O=[N+]([O-])c1ccccc1CN(c1sc2ccccc2c1Br)S(=O)(=O)c1ccccc1  inhibition at 0.5 µM            100

Need inhibition at 0.5 µM of O=C1CCCN1CCN(c1sc2ccccc2c1Cl)S(=O)(=O)c1ccccc1 , thanks. 87

Need inhibition at 0.5 µM of O=C1NCCN1CCN(c1sc2ccccc2c1Cl)S(=O)(=O)c1ccccc1 , thanks. 33

Need inhibition at 0.5 µM of C=CCN(c1sc2ccccc2c1Cl)S(=O)(=O)c1ccccc1 , thanks. 100

Need inhibition at 0.5 µM of Cc1c(N(Cc2ccc(F)c(F)c2)S(=O)(=O)c2ccccc2F)sc2ccccc12 , thanks. 99

Need inhibition at 0.5 µM of O=S(=O)(c1ccccc1)N(Cc1ccc(Cl)cc1)c1cc2ccccc2s1 , thanks. 99

Need inhibition at 0.5 µM of Cc1c(N(Cc2ccc(F)c(F)c2)S(=O)(=O)c2cccnc2)sc2ccccc12 , thanks. 97

Need inhibition at 0.5 µM of O=S(=O)(c1ccccc1)N(Cc1ccccc1F)c1sc2ccccc2c1Br , thanks. 94

Need inhibition at 0.5 µM of CCS(=O)(=O)N(Cc1ccc(F)c(F)c1)c1sc2ccccc2c1C , thanks. 99

Need inhibition at 0.5 µM of O=S(=O)(c1ccccc1)N(Cc1ccc(F)cc1)c1sc2ccccc2c1Br , thanks. 98

Need inhibition at 0.5 µM of Cc1c(N(Cc2cccc3cccnc23)S(=O)(=O)c2ccc3ncccc3c2)sc2ccccc12 , thanks. 100

Need inhibition at 0.5 µM of CCS(=O)(=O)N(Cc1ccc(F)c(C(F)(F)F)c1)c1sc2ccccc2c1C(C)=O , thanks. 96

Need inhibition at 0.5 µM of Cc1c(N(Cc2cccc3cccnc23)S(=O)(=O)c2cccnc2)sc2ccccc12 , thanks. 99
